Catalogue of RP-LC retention time values
experiment: gradient 5% acetonitrile 3 min, to 50% in 2 min, to 85% in 15 min, held 3 min, 100 µL/min; conditions: column: Zorbax Extend-C18 2.1 x 50 mm; eluents: water / acetonitrile, 0.1% formic acid
Please respond with the number in s and leave the unit unwritten.

Worked cases, answers included:
- STRUCTURE_NOTATION: "CCn1cc(CC(=O)NCc2ccc(OC)cc2)c2cccnc21"
  UNITS_TEXT: "s"
  RP-LC retention time: 716
- STRUCTURE_NOTATION: "Cc1nnc(-c2cccc(Cl)c2)nc1NC(C)C"
  UNITS_TEXT: "s"
  RP-LC retention time: 717

Consider now this further molecule.
Bench note: what RP-LC retention time did "COc1ncccc1CNC(=O)c1cccs1" show? 694
